species: Bos taurus; assay: Displacement of [3H]colchicine from tubulin in bovine brain at 5 uM DEAE-cellulose filter method

- smiles_input: "CNc1nc(-c2cc(OC)c(OC)c(OC)c2)c(-c2ccc(C)cc2)s1"
  inhibition [%]: 68
- smiles_input: "CCOc1ccc(-c2sc(C)nc2-c2cc(OC)c(OC)c(OC)c2)cc1"
  inhibition [%]: 51
- smiles_input: "CNc1nc(-c2cc(OC)c(OC)c(OC)c2)c(-c2ccc3ccccc3c2)s1"
  inhibition [%]: 78
- smiles_input: "CNc1nc(-c2cc(OC)c(OC)c(OC)c2)c(-c2ccc(OC)cc2)s1"
  inhibition [%]: 61
- smiles_input: "CCOc1ccc(-c2sc(NC)nc2-c2cc(OC)c(OC)c(OC)c2)cc1"
  inhibition [%]: 83
- smiles_input: "COc1cc(-c2nc(C)sc2-c2ccc3ccccc3c2)cc(OC)c1OC"
  inhibition [%]: 66

Reference source for all entries: ChEMBL document CHEMBL2202972
